System: Histophilus somni
assay_explanation: minimum inhibitory concentration (MIC)
cond: isolate (source animal id): 142
measured_attribute: minimum inhibitory concentration (µg/mL)

CN[C@@H]1[C@H](O)[C@H](NC)[C@H]2O[C@@]3(O)C(=O)C[C@@H](C)O[C@H]3O[C@@H]2[C@H]1O ... 32
C=C[C@]1(C)C[C@@H](OC(=O)CSCCN(CC)CC)[C@]2(C)[C@H](C)CC[C@]3(CCC(=O)[C@H]32)[C@@H](C)[C@@H]1O ... 2

====

# minimum inhibitory concentration annotations
System: Mannheimia haemolytica
assay_explanation: minimum inhibitory concentration (MIC)
cond: isolate (source animal id): 333
measured_attribute: minimum inhibitory concentration

CC[C@H]1OC(=O)C[C@@H](O)[C@H](C)[C@@H](O[C@@H]2O[C@H](C)[C@@H](O)[C@H](N(C)C)[C@H]2O)[C@@H](CCN2C[C@H](C)C[C@H](C)C2)C[C@@H](C)C(=O)/C=C/C(C)=C/[C@@H]1CO[C@@H]1O[C@H](C)[C@@H](O)[C@@H](OC)[C@H]1OC [Tilmicosin] ... > 16 µg/mL
CCN1CCN(c2cc3c(cc2F)c(=O)c(C(=O)O)cn3C2CC2)CC1 [Enrofloxacin] ... 0.5 µg/mL
COc1cc(Cc2cnc(N)nc2N)cc(OC)c1OC.Cc1cc(NS(=O)(=O)c2ccc(N)cc2)no1 [trimethoprim-sulfamethoxazole] ... ≤ 2 µg/mL
CN[C@@H]1[C@H](O)[C@H](NC)[C@H]2O[C@@]3(O)C(=O)C[C@@H](C)O[C@H]3O[C@@H]2[C@H]1O [Spectinomycin] ... 16 µg/mL
CC[C@H]1OC(=O)C[C@@H](O)[C@H](C)[C@@H](O[C@@H]2O[C@H](C)[C@@H](O[C@H]3C[C@@](C)(O)[C@@H](O)[C@H](C)O3)[C@H](N(C)C)[C@H]2O)[C@@H](CC=O)C[C@@H](C)C(=O)/C=C/C(C)=C/[C@@H]1CO[C@@H]1O[C@H](C)[C@@H](O)[C@@H](OC)[C@H]1OC [Tylosin] ... > 32 µg/mL
C=C[C@]1(C)C[C@@H](OC(=O)CSCCN(CC)CC)[C@]2(C)[C@H](C)CC[C@]3(CCC(=O)[C@H]32)[C@@H](C)[C@@H]1O [Tiamulin] ... 32 µg/mL
